Provenance of the data: ChEMBL document CHEMBL1154042

system: RAW264.7; test: Antiinflammatory activity in mouse RAW264.7 cells assessed as inhibition of Kdo2 lipid-A-stimulated arachidonic acid release after 1 hr; type: functional, cell-based; settings: RAW264.7, 1 h
Measured parameter: IC50 (µM)

1. CCCCCCCCCCCCCCC(=O)C(=O)N[C@@H](CCCC)CCCC(=O)O | 7
2. CCCCCCCCCCCCCCC(=O)C(=O)N[C@H](CCC(=O)O)CC(C)C | 25
3. CCCCCCCCCCCCCCC(=O)C(=O)N[C@@H](CCCC)COCC(=O)O | 2
4. CCCCCCCCCCCCCCC(=O)C(=O)NCCCC(=O)O | 25
5. CCCCCCCCCCCCCCC(=O)C(=O)N[C@@H](CCCC)CCC(=O)O | 25
6. CCCCCCCCCCCCCCC(=O)C(=O)N[C@H](/C=C/C(=O)O)CCCC | 25
7. CCCCCCCCCCC(=O)C(=O)N[C@@H](CCCC)CCC(=O)O | 10

====

target: 85/88 kDa calcium-independent phospholipase A2 (Homo sapiens) (UniProt O60733); assay: Inhibition of human group-6A iPLA2 at 0.091 mole fraction by mixed micellar assay
Measured parameter: inhibition

1) CCCCCCCCCCCCCCC(=O)C(=O)NCCCC(=O)COCC | > 90%
2) CCCCCCCCCCCCCCC(=O)C(=O)NCCCC(=O)CO | < 25%
3) CCCCCCCCCCCCCCC(=O)C(=O)N[C@H](C(=O)NCC(=O)OC)C(C)C | < 25%
4) CCCCCCCCCCCCCCC(=O)C(=O)N[C@H](C(=O)NCC(=O)O)C(C)C | < 25%
5) CCCCCCCCCCCCCCC(=O)C(=O)N[C@@H](CCCC)C(=O)NCC(=O)O | < 25%
6) CCCCCCCCCCCCCCC(=O)C(=O)N[C@@H](CCCC)COCC(=O)OCC | > 90%
7) CCCCCCCCCCCCCCC(=O)C(=O)N[C@@H](CCCC)C(=O)NCC(=O)OC(C)(C)C | > 90%

====

biological target: Phospholipase A2 group V (Homo sapiens); assay: Inhibition of human group-5 sPLA2 at 0.091 mole fraction by mixed micellar assay
Measured parameter: inhibition (%)

1) CCCCCCCCCCCCCCC(=O)C(=O)N[C@@H](CCCC)C(=O)NCC(=O)OCC | 63
2) CCCCCCCCCCCCCCC(=O)C(=O)N[C@@H](CCCC)COCC(=O)OC(C)(C)C | 57
3) CCCCCCCCCCCCCCC(=O)C(=O)N[C@H](C(=O)NCC(=O)OC(C)(C)C)C(C)C | 78

====

# key: entry, value: inhibition
biological target: Phospholipase A2 group V (Homo sapiens) (UniProt P39877); assay: Inhibition of human group-5 sPLA2 at 0.091 mole fraction by mixed micellar assay
Sequence (P39877 whole entry): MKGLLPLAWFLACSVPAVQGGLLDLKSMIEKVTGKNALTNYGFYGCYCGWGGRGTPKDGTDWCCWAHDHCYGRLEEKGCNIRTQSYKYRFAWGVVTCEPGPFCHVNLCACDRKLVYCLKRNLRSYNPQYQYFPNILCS
Measured parameter: inhibition (%)

1. CCCCCCCCCCCCCCC(=O)C(=O)N[C@@H](CCCC)COCC(=O)OCC | 81
2. CCCCCCCCCCCCCCC(=O)C(=O)N[C@@H](CCCC)C(=O)NCC(=O)OC(C)(C)C | 59
3. CCCCCCCCCCCCCCC(=O)C(=O)N[C@@H](CCCC)C(=O)NCC(=O)OC | 65

====

Target: 85/88 kDa calcium-independent phospholipase A2 (Homo sapiens) (UniProt O60733)
Sequence (whole entry): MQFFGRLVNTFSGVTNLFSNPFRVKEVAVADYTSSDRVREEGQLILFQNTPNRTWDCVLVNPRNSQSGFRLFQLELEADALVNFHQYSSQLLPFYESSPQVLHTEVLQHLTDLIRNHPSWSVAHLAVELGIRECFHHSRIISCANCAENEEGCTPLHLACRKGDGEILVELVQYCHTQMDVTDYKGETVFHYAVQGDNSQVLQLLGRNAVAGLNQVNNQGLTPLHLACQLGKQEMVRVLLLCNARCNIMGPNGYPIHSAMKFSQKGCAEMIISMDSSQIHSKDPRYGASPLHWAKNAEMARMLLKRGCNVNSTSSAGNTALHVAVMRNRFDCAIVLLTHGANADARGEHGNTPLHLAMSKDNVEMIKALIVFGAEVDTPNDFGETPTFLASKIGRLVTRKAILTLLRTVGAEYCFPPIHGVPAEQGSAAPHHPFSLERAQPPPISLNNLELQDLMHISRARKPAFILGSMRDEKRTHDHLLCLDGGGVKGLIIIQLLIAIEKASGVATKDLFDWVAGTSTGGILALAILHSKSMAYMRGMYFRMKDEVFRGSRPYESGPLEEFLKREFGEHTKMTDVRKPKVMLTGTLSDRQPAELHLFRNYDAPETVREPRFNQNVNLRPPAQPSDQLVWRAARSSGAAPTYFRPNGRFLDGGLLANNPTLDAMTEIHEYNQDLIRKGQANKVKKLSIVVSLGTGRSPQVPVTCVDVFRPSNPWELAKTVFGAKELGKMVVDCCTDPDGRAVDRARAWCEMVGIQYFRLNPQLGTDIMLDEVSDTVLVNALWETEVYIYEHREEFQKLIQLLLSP
Experiment: Inhibition of human group-6A iPLA2 at 0.091 mole fraction by mixed micellar assay
# key: entry, value: inhibition
Measured parameter: inhibition

1) CCCCCCCCCCCCCCC(=O)C(=O)N[C@@H](CCCC)C(=O)NCC(=O)OCC | > 90%
2) CCCCCCCCCCCCCCC(=O)C(=O)N[C@@H](CCCC)COCC(=O)OC(C)(C)C | 81%
3) CCCCCCCCCCCCCCC(=O)C(=O)N[C@H](C(=O)NCC(=O)OC(C)(C)C)C(C)C | > 90%
4) CCCCCCCCCCCCCCC(=O)C(=O)N[C@@H](CCCC)COCC(=O)O | < 25%
5) CCCCCCCCCCCCCCC(=O)C(=O)N[C@@H](CCCC)C(=O)NCC(=O)OC | > 90%
